Assay details: small-molecule microarray binders of probe aDKK1, primary screen, biochemical, biotinylated probe, 635/667 nm fluorescence (AID 1099);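 further: score merges 667nm spot fluorescence with signal to noise across triplicate slides; reference of the scale not given here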
Setup conditions: higher = more signal
Provide the reported composite z-score of each item.
When you answer, write just the number.

### Prompt Please give the measured composite z-score for this compound: `COC(=O)[C@H]1N=C(c2ccc(OCCCO)cc2)O[C@H]1c1ccccc1N=[N+]=[N-]`
### Response 0.927

### Prompt Please give the measured composite z-score for this compound: `[N-]=[N+]=Nc1ccccc1C[C@]1(C(=O)N2CCCCC2)N=C(c2ccc(OCCCO)cc2)O[C@H]1c1ccccc1`
### Response 1.01

### Prompt Please give the measured composite z-score for this compound: `CCOC(=O)C[C@H]1[C@H](OC(=O)c2ccc(-c3ccccc3)cc2)[C@@H](NC(=O)C2CCCCC2)c2cc(OCCCO)ccc2N1C(=O)Cc1ccc(OC)cc1`
### Response 0.0229

### Prompt Please give the measured composite z-score for this compound: `CC(C)N1C(=O)[C@@]2(Cc3ccccc31)c1ccccc1C(=O)N(Cc1ccccc1C(F)(F)F)[C@H]2c1ccc(CO)cc1`
### Response 0.444

### Prompt Please give the measured composite z-score for this compound: `O=C1O[C@H](c2ccccc2)[C@H](c2ccccc2)N2[C@H]1[C@@H](C(=O)O)[C@]1(C(=O)Nc3ccccc31)[C@H]2c1ccc(OCCO)cc1`
### Response -0.0668

### Prompt Please give the measured composite z-score for this compound: CCCC1(C(=O)OC)C=C2C(=C(C(C)C)C(=O)C2C)CN1 (stereo not given)
### Response 0.759

### Prompt Please give the measured composite z-score for this compound: `CC(C)Cc1ccc(CN2CC[C@@H](NC(=O)c3ccccc3)C2)cc1`
### Response -0.357

### Prompt Please give the measured composite z-score for this compound: COc1ccc(C(O)C2C=CC3C(=O)N(c4ccccc4)C(=O)C3N2Nc2ccccc2F)c2ccccc12 (stereo not given)
### Response 1.59

### Prompt Please give the measured composite z-score for this compound: `Cc1cccc([C@H]2C[C@H]3C(Br)=C[C@@]2(CO)C(=O)[C@]32CO2)c1`
### Response 0.0578

### Prompt Please give the measured composite z-score for this compound: `COC(=O)[C@@]1(Cc2ccc(F)cc2)[C@H]2c3cc(C(=O)N(C)C)n(Cc4ccc(C(F)(F)F)nc4)c3C[C@H]2CN1C(=O)c1ccccc1`
### Response -0.154

### Prompt Please give the measured composite z-score for this compound: `COC(=O)C(CC#Cc1ccc2c(c1)[C@]1(C(=O)N2)[C@H](C(=O)NC[C@H](O)c2ccccc2)[C@H]2C(=O)O[C@H](c3ccccc3)[C@H](c3ccccc3)N2[C@@H]1c1ccc(O)cc1)C(=O)OC`
### Response -0.107

### Prompt Please give the measured composite z-score for this compound: `CCCCC(=C=CC[C@@H](O)c1ccccc1OCCO)C[C@@H](O)c1ccccn1`
### Response -0.124

### Prompt Please give the measured composite z-score for this compound: C[C@]12C(=O)N(CCO)[C@@H]3C(=O)N(c4ccc(Cl)cc4)CC=CC31O[C@@H]1/C=C\CCCOC(=O)C12 (stereo not given in full)
### Response -0.128

### Prompt Please give the measured composite z-score for this compound: `COC(=O)[C@@]1(Cc2ccc(F)cc2)[C@H]2c3cc(C(=O)N4CCCC4)n(Cc4ccc(OC(F)(F)F)cc4)c3C[C@H]2CN1C(=O)c1ccccc1`
### Response 0.142

### Prompt Please give the measured composite z-score for this compound: `CCOC(=O)C[C@H]1[C@H](OC(=O)Cc2ccc3c(c2)OCO3)[C@@H](NC(=O)CC(C)C)c2cc(OCCCO)ccc2N1C(=O)c1ccc2ccccc2n1`
### Response 0.0956

Cited source for all entries: PubChem BioAssay
